B1: HDV Ribozyme (parent)
chain: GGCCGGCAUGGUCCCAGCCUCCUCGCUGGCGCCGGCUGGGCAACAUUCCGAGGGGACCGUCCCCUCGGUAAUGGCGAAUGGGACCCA

# Variants of: B1
# TEST_DETAILS: self-cleavage, relative activity (ratio to wild type); higher = more cleavage; co-transcriptional
Note that class boundaries on self-cleavage are low value: < 0.1; medium value: ≥ 0.1 and < 0.3; high value: ≥ 0.3

| VARIANT | CLASS |
| --- | --- |
| C30G C36A | low value |
| C15A G25A | low value |
| U20C C48A | high value |
| C58A C64G | high value |
| U27A G38C | low value |
| G1C G39U | medium value |
| C18G U46C | low value |
| G2C U37G | low value |
| G6U C15G | low value |
| C4G A56C | high value |
| C49U C63A | high value |
| U37A C64A | low value |
| G10U G50U | high value |
| U72A C75G | medium value |
| U12C G73U | low value |
| G38U C61G | low value |
| G25U U72C | medium value |
| C15U A16C | high value |
| C75A A78C | medium value |
| C49U A83U | high value |
| C13G C61G | low value |
| G39A G67U | high value |
| C18U C49G | high value |
| G17A G39C | low value |
| G34U G80A | medium value |
| G6U C26G | high value |
| C22G G34U | low value |
| G5U G50C | medium value |
| U27G G74A | medium value |
| C7A C15U | medium value |
| U37A A45U | medium value |
| G68U G81U | medium value |
| C7U G39C | low value |
| G6C U65C | medium value |
| U72A C86G | high value |
| C62U A70C | high value |
| C33U C63A | high value |
| G38U C66A | medium value |
| A8C G82C | low value |
| A16G C32A | medium value |
| C24U U37C | high value |
| G53C C85U | high value |
| C33G U69G | medium value |

Data provenance: the RNAGym collection of RNA variant scans (doi:10.7554/elife.80360)
